Attribute: EC50
- Tested System: T1, recombinant human Fibroblast Activation Protein (FAP) with N-terminus 6x histidine tag (human, UniProt Q12884 26-760)
- T1 construct: Bought protein; also called rFAP; rhFAP
- T1 sequence: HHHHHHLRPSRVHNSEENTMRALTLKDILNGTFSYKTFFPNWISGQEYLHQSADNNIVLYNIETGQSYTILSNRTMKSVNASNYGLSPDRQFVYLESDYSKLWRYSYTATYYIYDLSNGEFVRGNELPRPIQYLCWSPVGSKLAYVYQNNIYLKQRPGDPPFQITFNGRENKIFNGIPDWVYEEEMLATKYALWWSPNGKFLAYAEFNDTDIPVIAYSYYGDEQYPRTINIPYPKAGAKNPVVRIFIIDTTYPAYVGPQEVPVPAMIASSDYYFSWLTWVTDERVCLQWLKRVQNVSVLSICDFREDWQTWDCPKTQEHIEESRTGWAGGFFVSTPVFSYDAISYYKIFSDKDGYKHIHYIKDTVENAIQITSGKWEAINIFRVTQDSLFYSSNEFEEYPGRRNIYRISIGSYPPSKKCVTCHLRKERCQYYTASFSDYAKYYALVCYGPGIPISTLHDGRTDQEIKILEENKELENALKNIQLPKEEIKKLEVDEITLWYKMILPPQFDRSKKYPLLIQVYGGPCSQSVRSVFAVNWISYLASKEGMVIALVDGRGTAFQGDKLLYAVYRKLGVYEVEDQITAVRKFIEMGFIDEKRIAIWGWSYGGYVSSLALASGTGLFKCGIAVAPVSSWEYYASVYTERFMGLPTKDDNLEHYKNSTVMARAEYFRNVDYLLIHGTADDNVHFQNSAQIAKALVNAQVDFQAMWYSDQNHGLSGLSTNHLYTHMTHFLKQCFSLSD
- Experiment Description: capture ELISA: His-tagged rFAP captured by coated anti-His antibody (sFAP)

Some solved entries appear below for comparison.
NI-206.18H2 (antibody, V domains shown, Recombinant complete human IgG1; Cy5-labelled in flow cytometry) VH: QVQLQESGPRLVKPSETLSLTCTVSGYSISNGYYWGWIRQPPGQGLEWIASVWHSGNTYHNPSLKSRVTILVDTLKNQFSLNLKSVTAADTALYYCARSYTRNDVGAFETWGQGTMVTVSS VL: SYELTQPPSVSVSPGQTARIACSGDELPKRYAYWYQQKSGQAPVLVMYEDTKRPSGIPERLSGSSSGTVTTLTISGAQVEDEADYYCYSTAPSGNHTFVFGTGTRVTVL: 0.272 nM
NI-206.6D3 (antibody, V domains shown, Recombinant complete human IgG1; Cy5-labelled in flow cytometry) VH: EVQLVESGGGLVKPGESLRLSCAASGFTFSKAWMNWVRQGPGKGLEWVGRVKSKTDGGTTDYAAPVKGRFTISRDDSKDTVFLQMNSLKTEDTAVYYCSIQFIVVGDRGRDDQYMDVWGKGTTVTVSS VL: SYVLTQPPSVSVSPGQTARITCSGDALPKQYAFWYQQKPGQAPVIMIYKDNQRPSGIPERFSGSSSGTTVTLTISGVQTEDEADYYCQSADSTNTHVVFGGGTKLTVL: 118 nM
NI-206.27E8 (antibody, V domains shown, Recombinant complete human IgG1; Cy5-labelled in flow cytometry) VH: EVQLVESGGGLVEPGGSLRLSCAASGFTFSDAWMNWVRQAPGKGLEWVGRIKTKSDGGTTDYAAPVRGRFSISRDDSKNTLFLEMNSLKTEDTAIYYCFITVIVVSSESPLDHWGQGTLVTVSS VL: SYELTQPPSVSVSPGQTARITCSGDELPKQYAYWYQQKPGQAPVLVIYKDRQRPSGIPERFSGSSSGTTVTLTISGVQAEDEADYYCQSAYSINTYVIFGGGTKLTVL: 3.36 nM

Here's the next entry for you.
Note to self: EC50 recorded for NI-206.82C2 (antibody, V domains shown, Recombinantly expressed as complete human IgG1 with a lambda light chain; HRP-labelled in the homologue and sandwich ELISAs, Cy5-labelled in flow cytometry; also called HRP-labelled 82C2; Cy5 labelled 82C2) VH: QVQLQQSGPGLVKPSQTLSLTCAISGDSVSSNSVTWNWIRQSPSRGLEWLGRTYYRSKWYNDYAVSVKGRITINPDTSKNQFYLQLKSVTPEDAAVYYCARDSSILYGDYWGQGTLVTVSS VL: QAVLTQPSSLSASPGASASLTCTLPSGINVGTYRIFWFQQKPGSPPQYLLSYKSDSDNHQGSGVPSRFSGSKDASANAGILLISGLQSEDEADYYCMIWHSSAWVFGGGTKLTVL was 0.014 nM
